The measured values listed here are drawn from patent US20260265334A1.

- study system: T1, RXFP4 (relaxin family peptide receptor 4) on CHO-K1-RXFP4 cells (UniProt Q8TDU9 1-374, limits assumed)
- T1 construct: whole, on cells; also called INSL5 receptor
- T1 sequence (Q8TDU9 whole entry): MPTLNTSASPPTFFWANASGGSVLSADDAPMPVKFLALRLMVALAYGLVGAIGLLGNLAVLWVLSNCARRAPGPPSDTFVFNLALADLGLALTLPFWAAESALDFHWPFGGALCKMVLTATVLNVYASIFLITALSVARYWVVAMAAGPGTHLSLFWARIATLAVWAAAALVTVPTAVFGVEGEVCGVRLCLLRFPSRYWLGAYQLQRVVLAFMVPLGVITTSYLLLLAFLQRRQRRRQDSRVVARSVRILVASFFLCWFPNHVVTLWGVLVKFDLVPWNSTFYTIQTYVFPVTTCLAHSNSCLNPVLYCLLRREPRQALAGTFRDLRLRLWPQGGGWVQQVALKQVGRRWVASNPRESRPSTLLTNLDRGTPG
- procedure details: competition with Eu-R3/I5 on CHO-K1-RXFP4 cells
Bridge positions count the residues as written; N and C are the ends. Square brackets hold non-standard residues; d marks the D form. Ends that are not written are not given here. I, II: the chains in the order shown. αMeF = C[C@](N)(Cc1ccccc1)C(=O)O; αMeC = C[C@](N)(CS)C(=O)O
readout name: pKi
Lab note: write the figure by itself, no unit.

Exercise: Requested read-out: pKi. Entry: Native INSL5 (human insulin-like peptide 5) (ligand) chain 1: ZDLQTLCCTDGCSMTDLSALC chain 2: KESVRLCGLEYIRTVIYICASSRW
Key: 8.43

Exercise: May I ask what pKi has been recorded for SGL[αMeF]YIR[αMeF]VIYISGGSRW (18-residue RXFP4 agonist; also called aF stapled analogue; πI5B) [αF stapled analogue (INSL5 B-chain, Formula V)] ?
Key: 6.8

Exercise: I would be grateful if you could share the reported pKi for Ac-SGL[αMeC]YIR[αMeC]VIYISGGSRW (disulfide 4-8, also called disulfide stapled analogue) [Disulfide bridge stapled analogue (INSL5 B-chain, Formula IX)] .
Key: 7.33

Exercise: // query pKi value for entry INSL5-A13 (two-chain INSL5 analogue, RXFP4 agonist) (ligand, disulfide I:1-II:7, I:14-II:19, Disulfide bonds: Cys 1 of A chain to Cys 7 of B chain; Cys 14 of A chain to Cys 19 of B chain; also called Analogue 13; two chain agonist) chain 1: CTDGASMKDLSALC chain 2: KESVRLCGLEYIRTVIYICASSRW
Key: 7.46
